System: Candida albicans ATCC 62376
Assay: MIC by agar dilution method
Format: cell-based
Details: ATCC62376; Table 6c; V Candida albicans ATCC 62376; agar dilution; read-out: MIC V
Form field: MIC (one value per entry).

{"Compound": "CCCCC/C=C/C=C/[C@@H](O)C/C=C/C=C/C(=O)O[C@@H]1[C@@H](O)[C@H](c2c(O)cc(O)cc2CO)O[C@H](CO)[C@H]1O[C@@H]1O[C@H](COC(=O)c2ccc3c(c2)-c2ccccc2-3)[C@H](O)[C@H](O)[C@H]1O[C@@H]1O[C@H](CO)[C@H](O)[C@H](O)[C@H]1O [Example 28]", "Assay system": "Candida albicans ATCC 62376", "MIC": "1.56 µg/mL"}
{"Compound": "CCCCC/C=C/C=C/[C@@H](O)C/C=C/C=C/C(=O)O[C@@H]1[C@@H](O)[C@H](c2c(O)cc(O)cc2CO)O[C@H](CO)[C@H]1O[C@@H]1O[C@H](COC(=O)c2ccc(-c3ccccc3OC)cc2)[C@H](O)[C@H](O)[C@H]1O[C@@H]1O[C@H](CO)[C@H](O)[C@H](O)[C@H]1O [Example 40]", "Assay system": "Candida albicans ATCC 62376", "MIC": "1.56 µg/mL"}
{"Compound": "CCCCC/C=C/C=C/[C@@H](O)C/C=C/C=C/C(=O)O[C@@H]1[C@@H](O)[C@H](c2c(O)cc(O)cc2CO)O[C@H](CO)[C@H]1O[C@@H]1O[C@H](COC(=O)c2ccc3cc(OCc4ccccc4)ccc3c2)[C@H](O)[C@H](O)[C@H]1O[C@@H]1O[C@H](CO)[C@H](O)[C@H](O)[C@H]1O [Example 24]", "Assay system": "Candida albicans ATCC 62376", "MIC": "25 µg/mL"}

---

Tested on: Candida albicans CCH 442
Assay: MIC by agar dilution method
Format: cell-based
Conditions: CCH442; Table 6c, 3rd value column (head printed II); III Candida albicans CCH 442; agar dilution; read-out: MIC II
Form field: MIC (one value per entry).

{"Record smiles": "CCCCC/C=C/C=C/[C@@H](O)C/C=C/C=C/C(=O)O[C@@H]1[C@@H](O)[C@H](c2c(O)cc(O)cc2CO)O[C@H](CO)[C@H]1O[C@@H]1O[C@H](COC(=O)c2ccc3c(ccc4ccccc43)c2)[C@H](O)[C@H](O)[C@H]1O[C@@H]1O[C@H](CO)[C@H](O)[C@H](O)[C@H]1O", "MIC / µg/mL": 0.78}
{"Record smiles": "CCCCC/C=C/C=C/[C@@H](O)C/C=C/C=C/C(=O)O[C@@H]1[C@@H](O)[C@H](c2c(O)cc(O)cc2CO)O[C@H](CO)[C@H]1O[C@@H]1O[C@H](COC(=O)c2ccc3cc(OCc4ccccc4)ccc3c2)[C@H](O)[C@H](O)[C@H]1O[C@@H]1O[C@H](CO)[C@H](O)[C@H](O)[C@H]1O", "MIC / µg/mL": 25}
{"Record smiles": "CCCCC/C=C/C=C/[C@@H](O)C/C=C/C=C/C(=O)O[C@@H]1[C@@H](O)[C@H](c2c(O)cc(O)cc2CO)O[C@H](CO)[C@H]1O[C@@H]1O[C@H](COC(=O)c2ccc(-c3ccccc3OC)cc2)[C@H](O)[C@H](O)[C@H]1O[C@@H]1O[C@H](CO)[C@H](O)[C@H](O)[C@H]1O", "MIC / µg/mL": 6.25}

---

Tested on: Candida albicans CCH 442
Test: MIC by agar dilution method
Assay type: cell-based
Settings: CCH442; Table 6c, 3rd value column (head printed II); III Candida albicans CCH 442; agar dilution; read-out: MIC II

{"Compound": "CCCCC/C=C/C=C/[C@@H](O)C/C=C/C=C/C(=O)O[C@@H]1[C@@H](O)[C@H](c2c(O)cc(O)cc2CO)O[C@H](CO)[C@H]1O[C@@H]1O[C@H](COC(=O)c2ccc(-c3ccc(O)cc3)cc2)[C@H](O)[C@H](O)[C@H]1O[C@@H]1O[C@H](CO)[C@H](O)[C@H](O)[C@H]1O [Example 41]", "Assay system": "Candida albicans CCH 442", "MIC / µg/mL": 6.25}
{"Compound": "CCCCC/C=C/C=C/[C@@H](O)C/C=C/C=C/C(=O)O[C@@H]1[C@@H](O)[C@H](c2c(O)cc(O)cc2CO)O[C@H](CO)[C@H]1O[C@@H]1O[C@H](COC(=O)c2ccc(OCCCCCCCC)cc2)[C@H](O)[C@H](O)[C@H]1O[C@@H]1O[C@H](CO)[C@H](O)[C@H](O)[C@H]1O [Example 18]", "Assay system": "Candida albicans CCH 442", "MIC / µg/mL": 1.56}
{"Compound": "CCCCC/C=C/C=C/[C@@H](O)C/C=C/C=C/C(=O)O[C@@H]1[C@@H](O)[C@H](c2c(O)cc(O)cc2CO)O[C@H](CO)[C@H]1O[C@@H]1O[C@H](COC(=O)c2cc3ccccc3c3ccccc23)[C@H](O)[C@H](O)[C@H]1O[C@@H]1O[C@H](CO)[C@H](O)[C@H](O)[C@H]1O [Example 27]", "Assay system": "Candida albicans CCH 442", "MIC / µg/mL": 3.12}

---

System: Candida albicans ATCC 62376
Assay: MIC by agar dilution method
Format: cell-based
Settings: ATCC62376; Table 6c; V Candida albicans ATCC 62376; agar dilution; read-out: MIC V
Experimental: Minimal inhibitory concentrations (MICs) were determined by an agar dilution method. The test compounds were serially diluted in MeOH and 0.2 mL portions were mixed with 20 mL of molten, cooled Sabouraud dextrose agar (Difco). Yeast cell inoculum was prepared by growing cultures on Sabouraud dextrose agar for 18 hours at 32° C. and suspending the cells in phosphate buffered saline. Filamentous fungi were grown under the same conditions for 4 days to obtain spores. […]
Form field: MIC (one value per entry).

{"Compound": "CCCCC/C=C/C=C/[C@@H](O)C/C=C/C=C/C(=O)O[C@@H]1[C@@H](O)[C@H](c2c(O)cc(O)cc2CO)O[C@H](CO)[C@H]1O[C@@H]1O[C@H](COC(=O)CCC)[C@H](O)[C@H](O)[C@H]1O[C@@H]1O[C@H](CO)[C@H](O)[C@H](O)[C@H]1O [Example 12]", "MIC": "50 µg/mL"}
{"Compound": "CCCCC/C=C/C=C/C(O)C/C=C/C=C/C(=O)O[C@@H]1[C@@H](O)[C@H](c2c(O)cc(O)cc2CO)O[C@H](CO)[C@H]1O[C@@H]1O[C@H](CO)[C@H](O)[C@H](O)[C@H]1O[C@@H]1O[C@H](CO)[C@H](O)[C@H](O)[C@H]1O (stereo partly shown) [Example 7, fusacandin B]", "MIC": "50 µg/mL"}
{"Compound": "CCCCC/C=C/C=C/[C@@H](O)C/C=C/C=C/C(=O)O[C@@H]1[C@@H](O)[C@H](c2c(O)cc(O)cc2CO)O[C@H](CO)[C@H]1O[C@@H]1O[C@H](COC(=O)c2ccc(-c3ccc(OCCC)cc3)cc2)[C@H](O)[C@H](O)[C@H]1O[C@@H]1O[C@H](CO)[C@H](O)[C@H](O)[C@H]1O [Example 42]", "MIC": "0.78 µg/mL"}
{"Compound": "CCCCC/C=C/C=C/[C@@H](O)C/C=C/C=C/C(=O)O[C@@H]1[C@@H](O)[C@H](c2c(O)cc(O)cc2CO)O[C@H](CO)[C@H]1O[C@@H]1O[C@H](COC(=O)c2ccccc2)[C@H](O)[C@H](O)[C@H]1O[C@@H]1O[C@H](CO)[C@H](O)[C@H](O)[C@H]1O [Example 14]", "MIC": "12.5 µg/mL"}
{"Compound": "C=CCOc1ccc2cc(C(=O)OC[C@H]3O[C@@H](O[C@H]4[C@H](OC(=O)/C=C/C=C/C[C@H](O)/C=C/C=C/CCCCC)[C@@H](O)[C@H](c5c(O)cc(O)cc5CO)O[C@@H]4CO)[C@H](O[C@@H]4O[C@H](CO)[C@H](O)[C@H](O)[C@H]4O)[C@@H](O)[C@H]3O)ccc2c1 [Example 23]", "MIC": "6.25 µg/mL"}
{"Compound": "CCCCC/C=C/C=C/[C@@H](O)C/C=C/C=C/C(=O)O[C@@H]1[C@@H](O)[C@H](c2c(O)cc(O)cc2CO)O[C@H](CO)[C@H]1O[C@@H]1O[C@H](COC(=O)c2ccc(-c3ccccc3)cc2)[C@H](O)[C@H](O)[C@H]1O[C@@H]1O[C@H](CO)[C@H](O)[C@H](O)[C@H]1O [Example 30]", "MIC": "0.78 µg/mL"}
{"Compound": "CCCCC/C=C/C=C/[C@@H](O)C/C=C/C=C/C(=O)O[C@@H]1[C@@H](O)[C@H](c2c(O)cc(O)cc2CO)O[C@H](CO)[C@H]1O[C@@H]1O[C@H](COC(=O)c2ccc(Oc3ccccc3)cc2)[C@H](O)[C@H](O)[C@H]1O[C@@H]1O[C@H](CO)[C@H](O)[C@H](O)[C@H]1O [Example 31]", "MIC": "3.12 µg/mL"}
